test: Measurement of solubility in water, octanol saturated water and water saturated octanol; details: solubility in octanol saturated water, 25° C.
Assign Sow to each entry below.

Consider the reported Sow for these compounds:
COMPOUND: COc1cccc(OC)c1C(=O)[O-].COc1cccc(OC)c1C(=O)[O-].COc1cccc(OC)c1C(=O)[O-].COc1cccc(OC)c1C(=O)[O-].O.O.[Cu+2].[Cu+2]
REPORTED_PROPERTY: Sow
REPORTED_MEASUREMENT: 31.97(19) mg/ml

COMPOUND: Brc1cccnc1.Brc1cccnc1.CC(=O)Oc1ccccc1C(=O)[O-].CC(=O)Oc1ccccc1C(=O)[O-].CC(=O)Oc1ccccc1C(=O)[O-].CC(=O)Oc1ccccc1C(=O)[O-].[Cu+2].[Cu+2]
REPORTED_PROPERTY: Sow
REPORTED_MEASUREMENT: 1.566(5) mg/ml

COMPOUND: CC(=O)Oc1ccccc1C(=O)[O-].CC(=O)Oc1ccccc1C(=O)[O-].NC(=O)c1cccnc1.NC(=O)c1cccnc1.[Cu+2] [ASP-8, Cu(ASP)2(Nicotinamide)2]
REPORTED_PROPERTY: Sow
REPORTED_MEASUREMENT: 3.361(29) mg/ml

COMPOUND: CC(=O)Oc1ccccc1C(=O)[O-].CC(=O)Oc1ccccc1C(=O)[O-].CC(=O)Oc1ccccc1C(=O)[O-].CC(=O)Oc1ccccc1C(=O)[O-].[Cu+2].[Cu+2]
REPORTED_PROPERTY: Sow
REPORTED_MEASUREMENT: 2.981(3) mg/ml

COMPOUND: C1CCOC1.C1CCOC1.O=C(Oc1ccccc1C(=O)[O-])c1ccccc1O.O=C(Oc1ccccc1C(=O)[O-])c1ccccc1O.O=C(Oc1ccccc1C(=O)[O-])c1ccccc1O.O=C(Oc1ccccc1C(=O)[O-])c1ccccc1O.[Cu+2].[Cu+2].c1ccc(-c2ccncc2)cc1.c1ccc(-c2ccncc2)cc1 [SAS-5, Cu2(SAS)4(4-Phenyl-Pyridine)2(THF)2]
REPORTED_PROPERTY: Sow
REPORTED_MEASUREMENT: 0.0315(2) mg/ml

For every record below, what is its Sow?
1. Clc1cccnc1.Clc1cccnc1.O=C(Oc1ccccc1C(=O)[O-])c1ccccc1O.O=C(Oc1ccccc1C(=O)[O-])c1ccccc1O.O=C(Oc1ccccc1C(=O)[O-])c1ccccc1O.O=C(Oc1ccccc1C(=O)[O-])c1ccccc1O.[Cu+2].[Cu+2] [SAS-3, Cu2(SAS)4(3-Cl-Pyridine)2]
2. CC(=O)Oc1ccccc1C(=O)[O-].CC(=O)Oc1ccccc1C(=O)[O-].CC(=O)Oc1ccccc1C(=O)[O-].CC(=O)Oc1ccccc1C(=O)[O-].[Cu+2].[Cu+2].c1ccc2ncccc2c1.c1ccc2ncccc2c1
3. CC(=O)Oc1ccccc1C(=O)[O-].CC(=O)Oc1ccccc1C(=O)[O-].NC(=O)c1ccncc1.NC(=O)c1ccncc1.[Cu+2] [ASP-7, Cu(ASP)2(Isonicotinamide)2]
4. O.O.O=C(Oc1ccccc1C(=O)[O-])c1ccccc1O.O=C(Oc1ccccc1C(=O)[O-])c1ccccc1O.O=C(Oc1ccccc1C(=O)[O-])c1ccccc1O.O=C(Oc1ccccc1C(=O)[O-])c1ccccc1O.[Cu+2].[Cu+2] [SAS-1, Cu2(SAS)4(H2O)2]

Ans.
["0.1259(4) mg/ml", "3.342(3) mg/ml", "5.654(20) mg/ml", "0.2962(10) mg/ml"]

Provide each entry's Sow from the list below.
1. O=C(Oc1ccccc1C(=O)[O-])c1ccccc1O.O=C(Oc1ccccc1C(=O)[O-])c1ccccc1O.[Cu+2].c1ccncc1.c1ccncc1.c1ccncc1 [SAS-6, Cu(SAS)2(Pyridine)3]
2. CC(=O)Oc1ccccc1C(=O)[O-].CC(=O)Oc1ccccc1C(=O)[O-].CC(=O)Oc1ccccc1C(=O)[O-].CC(=O)Oc1ccccc1C(=O)[O-].CN(C)C=O.CN(C)C=O.[Cu+2].[Cu+2]
3. CC(=O)Oc1ccccc1C(=O)[O-].CC(=O)Oc1ccccc1C(=O)[O-].[Cu+2].c1ccc(-c2cccnc2)cc1.c1ccc(-c2cccnc2)cc1
4. CCc1ccncc1.CCc1ccncc1.O=C(Oc1ccccc1C(=O)[O-])c1ccccc1O.O=C(Oc1ccccc1C(=O)[O-])c1ccccc1O.[Cu+2] [SAS-9, Cu(SAS)2(4-Et-Pyridine)2]
5. O=C(Oc1ccccc1C(=O)[O-])c1ccccc1O.O=C(Oc1ccccc1C(=O)[O-])c1ccccc1O.O=C(Oc1ccccc1C(=O)[O-])c1ccccc1O.O=C(Oc1ccccc1C(=O)[O-])c1ccccc1O.[Cu+2].[Cu+2].c1ccc(Cc2ccncc2)cc1.c1ccc(Cc2ccncc2)cc1 [SAS-4, Cu2(SAS)4(4-Benzyl-Pyridine)2]
6. CC(=O)[O-].CC(=O)[O-].COc1cccc(OC)c1C(=O)[O-].COc1cccc(OC)c1C(=O)[O-].O.O.[Cu+2].[Cu+2]
7. CC(=O)Oc1ccccc1C(=O)[O-].CC(=O)Oc1ccccc1C(=O)[O-].[Cu+2].c1ccncc1.c1ccncc1

Ans.
["0.3291(8) mg/ml", "4.493(4) mg/ml", "0.4085(17) mg/ml", "0.1104(8) mg/ml", "0.0153(3) mg/ml", "15.64(14) mg/ml", "3.629(24) mg/ml"]

Qu. I am curious: what Sow value has been reported for Cc1ccncc1.Cc1ccncc1.O=C(Oc1ccccc1C(=O)[O-])c1ccccc1O.O=C(Oc1ccccc1C(=O)[O-])c1ccccc1O.[Cu+2] [SAS-8, Cu(SAS)2(4-Me-Pyridine)2] ?
Ans. 0.2174(10) mg/ml

###

assay: Measurement of solubility in water, octanol saturated water and water saturated octanol; settings: solubility in water saturated octanol, 25° C.
REPORTED_PROPERTY: Swo

Examples with their reported Swo follow.
MOLECULE: CC(=O)Oc1ccccc1C(=O)[O-].CC(=O)Oc1ccccc1C(=O)[O-].CC(=O)Oc1ccccc1C(=O)[O-].CC(=O)Oc1ccccc1C(=O)[O-].[Cu+2].[Cu+2]
Swo: 0.9767(36) mg/ml

MOLECULE: Brc1cccnc1.Brc1cccnc1.CC(=O)Oc1ccccc1C(=O)[O-].CC(=O)Oc1ccccc1C(=O)[O-].CC(=O)Oc1ccccc1C(=O)[O-].CC(=O)Oc1ccccc1C(=O)[O-].[Cu+2].[Cu+2]
Swo: 1.256(15) mg/ml

MOLECULE: Clc1cccnc1.Clc1cccnc1.O=C(Oc1ccccc1C(=O)[O-])c1ccccc1O.O=C(Oc1ccccc1C(=O)[O-])c1ccccc1O.O=C(Oc1ccccc1C(=O)[O-])c1ccccc1O.O=C(Oc1ccccc1C(=O)[O-])c1ccccc1O.[Cu+2].[Cu+2] [SAS-3, Cu2(SAS)4(3-Cl-Pyridine)2]
Swo: 0.7034(61) mg/ml

Then this molecule:
Qu. Record request: Swo value, item O=C(Oc1ccccc1C(=O)[O-])c1ccccc1O.O=C(Oc1ccccc1C(=O)[O-])c1ccccc1O.O=C(Oc1ccccc1C(=O)[O-])c1ccccc1O.O=C(Oc1ccccc1C(=O)[O-])c1ccccc1O.[Cu+2].[Cu+2].c1ccc(Cc2ccncc2)cc1.c1ccc(Cc2ccncc2)cc1 [SAS-4, Cu2(SAS)4(4-Benzyl-Pyridine)2]
Ans. 0.3314(22) mg/ml

###

test: Measurement of solubility in water, octanol saturated water and water saturated octanol; conditions: octanol saturated water, 25 °C, water, thermodynamic from solid
REPORTED_PROPERTY: solubility thermodynamic at 8 h (µg/mL)
Answers are plain numbers, in µg/mL.

Qu. Would you mind telling me what solubility thermodynamic at 8 h value was observed for CC(=O)Oc1ccccc1C(=O)O [Aspirin(ASP), acetylsalicylic acid, reference compound] ?
Ans. 4300

###

test: Measurement of solubility in water, octanol saturated water and water saturated octanol; details: solubility in water, 25° C.
REPORTED_PROPERTY: Sw

Below, 7 compounds whose answers are already recorded.
COMPOUND: Clc1cccnc1.Clc1cccnc1.O=C(Oc1ccccc1C(=O)[O-])c1ccccc1O.O=C(Oc1ccccc1C(=O)[O-])c1ccccc1O.O=C(Oc1ccccc1C(=O)[O-])c1ccccc1O.O=C(Oc1ccccc1C(=O)[O-])c1ccccc1O.[Cu+2].[Cu+2] [SAS-3, Cu2(SAS)4(3-Cl-Pyridine)2]
Sw: 0.1239(1) mg/ml

COMPOUND: CC(=O)Oc1ccccc1C(=O)[O-].CC(=O)Oc1ccccc1C(=O)[O-].CC(=O)Oc1ccccc1C(=O)[O-].CC(=O)Oc1ccccc1C(=O)[O-].[Cu+2].[Cu+2].c1ccc2ncccc2c1.c1ccc2ncccc2c1
Sw: 2.729(1) mg/ml

COMPOUND: O=C(Oc1ccccc1C(=O)[O-])c1ccccc1O.O=C(Oc1ccccc1C(=O)[O-])c1ccccc1O.[Cu+2].c1ccncc1.c1ccncc1.c1ccncc1 [SAS-6, Cu(SAS)2(Pyridine)3]
Sw: 0.4065(8) mg/ml

COMPOUND: Brc1cccnc1.Brc1cccnc1.CC(=O)Oc1ccccc1C(=O)[O-].CC(=O)Oc1ccccc1C(=O)[O-].CC(=O)Oc1ccccc1C(=O)[O-].CC(=O)Oc1ccccc1C(=O)[O-].[Cu+2].[Cu+2]
Sw: 1.564(3) mg/ml

COMPOUND: CC(=O)[O-].CC(=O)[O-].COc1cccc(OC)c1C(=O)[O-].COc1cccc(OC)c1C(=O)[O-].O.O.[Cu+2].[Cu+2]
Sw: 15.82(11) mg/ml

COMPOUND: CC(=O)Oc1ccccc1C(=O)[O-].CC(=O)Oc1ccccc1C(=O)[O-].CC(=O)Oc1ccccc1C(=O)[O-].CC(=O)Oc1ccccc1C(=O)[O-].CN(C)C=O.CN(C)C=O.[Cu+2].[Cu+2]
Sw: 3.092(33) mg/ml

COMPOUND: CC(=O)Oc1ccccc1C(=O)[O-].CC(=O)Oc1ccccc1C(=O)[O-].[Cu+2].c1ccc(-c2cccnc2)cc1.c1ccc(-c2cccnc2)cc1
Sw: 0.5415(7) mg/ml

# input for lookup
Qu. What does the data say about its Sw? Entry: CC(=O)Oc1ccccc1C(=O)[O-].CC(=O)Oc1ccccc1C(=O)[O-].[Cu+2].c1ccncc1.c1ccncc1
Ans. 3.425(21) mg/ml
